- PROCEDURE_SUMMARY: Distribution of BS in brain tissue of ICR mice after intraperitoneal injection, ICP-MS
- Format: in vivo
- STATED_CONDITIONS: female, mouse, ip, intraperitoneal injection 90 mg/kg, 2 h after administration (peak)
ENDPOINT: concentration at 2 h (ng/g)
Numbers only, in ng/g.

Lookup: # input compound: O=c1c2ccccc2[se]n1CCCCn1[se]c2ccccc2c1=O [BS, butaselen] ; wanted: its concentration at 2 h
Found: 528

----------
- PROCEDURE_SUMMARY: Distribution of BS in brain tissue of ICR mice after intraperitoneal injection, ICP-MS
- Type: in vivo
- STATED_CONDITIONS: female, mouse, ip, intraperitoneal injection 90 mg/kg, 1 h after administration
- Description: The distribution of BS in mouse brain tissue was examined as follows: Brain glioma is located in the skull and has a special lesion location. Thus, it is critical whether a drug can cross the blood-brain barrier and act at the lesion site. In order to detect whether BS can reach brain tissue through the blood-brain barrier, female six-week-old ICR mice were selected for the study. […] The BS content per gram of brain tissue was calculated by detecting the selenium content per gram of brain tissue.
ENDPOINT: concentration at 1 h (ng/g)
Numbers only, in ng/g.

Lookup: Please look up its concentration at 1 h: "O=c1c2ccccc2[se]n1CCCCn1[se]c2ccccc2c1=O"
Found: 372

Values were extracted from patent EP4620468A1.
